Give parasite load remaining for every item shown.
measurementDescription: liver-stage malaria parasite growth inhibition, primary screen, cell-based, HepG2, luciferase luminescence, HepG2 viability (AID 624349);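 further: 100% = mean of DMSO negative control wells on the same plate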
assaySetup: P. berghei liver stage in HepG2, luciferase luminescence, concentration not given here; stronger effect = lower value
One number for each entry, in %.

Use the examples below as a reference point.
NCCC(O)C(=O)N[C@@H]1C[C@H](N)[C@@H](OC2O[C@H](CN)[C@@H](O)[C@H](O)[C@H]2N)[C@H](OC2O[C@H](CO)C(O)[C@H]2O)[C@H]1O (some centres undefined) = 106
CCN1C[C@]2(COC)CC[C@H](OC)[C@@]34C1[C@]1(OCO[C@@]15C[C@H](OC)[C@H]1C[C@@H]3[C@@H]5[C@H]1OC)[C@@H](O)[C@H]24 = 79.2
C#C[C@]1(O)CC[C@H]2[C@@H]3CCC4=CC(=O)CCC4=C3C=C[C@@]21CC = 55.7

We next turn to a different compound, shown below.
IN: Entry CC12CCC(=O)C=C1CCC1C2CCC2(C)C(O)CCC12 (centres undefined) has what parasite load remaining?
OUT: 38.7

----------
measurementDescription: growth inhibition of DIPG glioma cells, dose response, cell-based, SU-DIPG-IV, MIPE4.0, CellTiter-Glo, qHTS (AID 1347063);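 further: compound exposure lasted 48 hours before the viability readout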
assaySetup: SU-DIPG-IV viability, CellTiter-Glo ATP luminescence
Results filed as inconclusive are left out. Active and inactive are the calls of the source. The limit is not given here; nearly all actives have AC50 up to about 30 µM.
Your response should consist of one outcome taken from active, inactive

IN: Recorded test outcome, item `O=C(O)C(=O)c1cn(Cc2ccccc2)c2ccc(-c3ccc(OC(F)(F)F)cc3)cc12`
OUT: inactive

IN: Recorded test outcome, item `CC[C@@H]1[C@@H](C)O[C@@](O)([C@@H](C)[C@H](O)[C@H](C)[C@H]2OC(=O)/C=C/C=C/[C@H](C)[C@@H]([C@@H](C)[C@@H](O)[C@H](C)[C@@]3(O)C[C@@H](O[C@H]4C[C@H](O)[C@H](O)[C@H](C)O4)[C@H](CC)[C@@H](C)O3)OC(=O)/C=C/C=C/[C@@H]2C)C[C@H]1O[C@H]1C[C@H](O)[C@H](O)[C@H](C)O1`
OUT: active

IN: Recorded test outcome, item `C#C[C@]1(O)C=C[C@H]2[C@@H]3CCC4=CC(=O)CC[C@@H]4[C@H]3CC[C@@]21CC`
OUT: inactive

IN: Recorded test outcome, item COC1(CS(=O)c2ccccc2)CCN(CCc2c[nH]c3ccc(F)cc23)CC1 (configuration not stated)
OUT: inactive

IN: Recorded test outcome, item `CC(=O)N(C)c1cccc(-c2ccnc3c(C(=O)c4cccs4)cnn23)c1`
OUT: inactive

IN: Recorded test outcome, item `O=C(O)CNC(=O)c1c(O)c2ccccc2n(Cc2ccccc2)c1=O`
OUT: inactive

IN: Recorded test outcome, item `Cc1c(C(=O)Nc2cccc(C(F)(F)F)c2)cc(-c2ccccc2)n1CCCN1CCOCC1`
OUT: active

----------
measurementDescription: stimulators of nuclear beta-catenin in C2C12, primary screen, imaging, WNT3A-conditioned medium, mouse C2C12, NPC library (AID 1117326); further: reference of the scale not given here
assaySetup: stimulation, at 2 µM, stronger effect = higher value
Give nuclear beta-catenin stimulation for every item shown.
Numbers only, in %.

Use the examples below as a reference point.
COc1cc(N)c(Cl)cc1C(=O)NC1CN2CCC1CC2 (stereo unspecified) = 0
COc1ccc(C(=O)c2c(C)n(CCN3CCOCC3)c3ccccc23)cc1 = 0.9
c1ccc2c(c1)OCC(C1=NCCN1)O2 (stereo unspecified) = -1.4
N[C@@H](Cc1ccc(N(CCCl)CCCl)cc1)C(=O)O = -1.1

Would you mind listing nuclear beta-catenin stimulation for each of the following compounds?
1. O=C1OC(c2ccc(O)c(S(=O)(=O)O)c2)(c2ccc(O)c(S(=O)(=O)O)c2)c2c(Br)c(Br)c(Br)c(Br)c21
2. O=[N+]([O-])c1ccc([As](=O)(O)O)cc1

OUT:
1. 4.7
2. 1

----------
measurementDescription: CellTiter-Glo luminescent readout of SW480 viability loss, NPC library primary (AID 1117343)
assaySetup: CellTiter-Glo luminescence; at 20 µM (top of the series)
Activity calls are given as the source filed them.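 Rule for the calls: active = compounds that lower viability of the colon cancer cells in the luminescence readout, with no numeric limit stated; inactive = the rest.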
Your response should consist of one outcome taken from TRUE = active, FALSE = inactive

IN: Recorded test outcome, item O=C(NCNC(=O)NC1C(=O)NC(=O)N1CO)NC1C(=O)NC(=O)N1CO (stereo not drawn)
OUT: FALSE

----------
measurementDescription: viability rescue of complex I mutant cybrids, primary screen, cell-based, galactose medium, ATP luminescence (AID 1645843);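 further: positive z means more ATP and so rescue of galactose-driven cybrid death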
assaySetup: complex I mutant cybrid cells, 72 h, stronger effect = higher value
z-score below -0.2 gives Condition not met; z-score at or above it gives Condition met.

The following molecules have reported results that may help.
NC(N)=Nc1ccc2[nH]c3c(c2c1)C[C@@]1(O)[C@H]2Cc4ccc(O)c5c4[C@@]1(CCN2CC1CC1)[C@H]3O5 = Condition not met
C[C@]12CCC(=O)C=C1CCC1C2CC[C@@]2(C)C1CC[C@]2(C)O (stereo not given in full) = Condition not met
CC(=O)[C@H]1CC[C@H]2[C@@H]3CC[C@H]4C[C@](C)(O)CC[C@]4(C)[C@H]3CC[C@]12C = Condition met
CCCCCCCCCOc1ccc2[nH]cc(CCN)c2c1 = Condition not met
CNC1CC(c2ccc(Cl)c(Cl)c2)c2ccccc21 (stereo not given) = Condition not met
CCCOC1CCCN(C2CCN(C)CC2)C1 (stereo not given) = Condition not met

IN: Hi team, for `CC(C)Oc1cccnc1N(C)C1CCN(Cc2ccccc2)CC1` , is the recorded z-score at or above -0.2?
OUT: Condition not met

IN: Hi team, for NC1(c2ccccc2Cl)CCCCC1=O (stereo not given) , is the recorded z-score at or above -0.2?
OUT: Condition met

IN: Hi team, for `CCCN1CCC[C@@H](c2cccc(O)c2)C1` , is the recorded z-score at or above -0.2?
OUT: Condition met

IN: Hi team, for `Cc1nc(N)sc1CCN` , is the recorded z-score at or above -0.2?
OUT: Condition met

IN: Hi team, for `O=Cc1cn(Cc2ccc(Cl)cc2)c2ccccc12` , is the recorded z-score at or above -0.2?
OUT: Condition not met

IN: Hi team, for `Clc1ccc(CON=C(Cn2ccnc2)c2ccc(Cl)cc2Cl)c(Cl)c1` , is the recorded z-score at or above -0.2?
OUT: Condition not met

IN: Hi team, for `Oc1cc(Cl)ccc1Oc1ccc(Cl)cc1Cl` , is the recorded z-score at or above -0.2?
OUT: Condition not met

IN: Hi team, for O=C1Nc2cc(Cl)c(Cl)cc2N2CCNCC12 (stereo not given) , is the recorded z-score at or above -0.2?
OUT: Condition not met

IN: Hi team, for `C[C@H](N)Cc1cccc(C(F)(F)F)c1` , is the recorded z-score at or above -0.2?
OUT: Condition met

IN: Hi team, for `O=c1c2cc(F)ccc2ncn1Cc1cn2ccccc2n1` , is the recorded z-score at or above -0.2?
OUT: Condition met

----------
measurementDescription: SU-DIPG-VI glioma cell viability, MIPE4.0 library, CellTiter-Glo luminescence, qHTS (AID 1347066);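 further: cells exposed to compound for 48 hours before readout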
assaySetup: CellTiter-Glo ATP luminescence
Inconclusive results are not listed. Calls of active or inactive are those of the source. The limit is not given here; nearly all actives have AC50 up to about 30 µM.
measuredEndpoint: outcome

c1cc2c(cc1[C@H]1OC[C@H]3[C@@H]1CO[C@@H]3c1ccc3c(c1)OCO3)OCO2 = inactive
O=c1[nH]c2ccccc2n1CCCN1CCC(n2c(=O)[nH]c3cc(Cl)ccc32)CC1 = inactive
CC(C)[C@H]1C(=O)N[C@H](CO)Cc2c[nH]c3cccc(c23)N1C = inactive

----------
System: Neuropilin-2 / VEGF-C interaction (human)
measurementDescription: inhibitors of NRP2–VEGF-C binding, biochemical, microplate binding format, z-score (AID 743281)
assaySetup: microplate NRP2/VEGF-C binding assay; stronger effect = lower value
Activity calls are given as the source filed them. No rule for the calls is given here.
measuredEndpoint: z-score

Use the examples below as a reference point.
CS(=O)(=O)Nc1ccc(Cc2noc(-c3ccc4[nH]cc(CCN)c4c3)n2)cc1 = 1.81 (inactive)
NCCc1ccccn1 = 1.2 (inactive)
COC(=O)N1CCN(C(=O)Cc2ccc(Cl)c(Cl)c2)C(CN2CCCC2)C1 (configuration not stated) = 1.19 (inactive)
COc1cccc([C@@]2(O)CCCC[C@@H]2CN(C)C)c1 = 0.404 (inactive)
CC(C)[C@]12O[C@H]1[C@@H]1O[C@]13[C@]1(O[C@H]1C[C@H]1C4=C(CC[C@@]13C)C(=O)OC4)[C@@H]2O = 0.859 (inactive)
C[N+]1(CCC(C(N)=O)(c2ccccc2)c2ccccc2)CCCCC1 = -0.188 (inactive)

Would you mind listing z-score for each of the following molecules?
1. CCN(C(C)=O)c1cccc(-c2ccnc3c(C#N)cnn23)c1
2. CN1CC[C@@H](c2ccc(F)cc2)[C@H](COc2ccc3c(c2)OCO3)C1
3. C#CCN(C)[C@H](C)Cc1ccccc1
4. CC(O)(CS(=O)(=O)c1ccc(F)cc1)C(=O)Nc1ccc(C#N)c(C(F)(F)F)c1 (configuration not stated)
5. COc1ccc2[nH]cc(C3=CCNCC3)c2c1
6. COc1cc2c(cc1OC)[C@@]13CCN4CC5=CCO[C@H]6CC(=O)N2[C@H]1[C@H]6[C@H]5C[C@H]43
7. Cc1nnc2n1-c1ccc(Cl)cc1C(c1ccccc1)=NC2

OUT:
1. -0.583 (inactive)
2. -0.473 (inactive)
3. -0.865 (inactive)
4. 0.117 (inactive)
5. -1.09 (inactive)
6. -0.249 (inactive)
7. -0.124 (inactive)

Would you mind listing z-score for each of the following molecules?
1. CCCCC/C=C\C/C=C\C/C=C\C/C=C\CCCC(=O)Nc1ccc(O)cc1
2. O=c1c2ccccc2[se]n1-c1ccccc1
3. c1ccc(Cn2ccnc2)cc1

OUT:
0.572 (inactive)
0.167 (inactive)
0.238 (inactive)
